From: paper PMC11259703

# assayedSystem: ICBP90 (UHRF1) (Homo sapiens, UniProt Q96T88)
# Sequence (Q96T88 413-618): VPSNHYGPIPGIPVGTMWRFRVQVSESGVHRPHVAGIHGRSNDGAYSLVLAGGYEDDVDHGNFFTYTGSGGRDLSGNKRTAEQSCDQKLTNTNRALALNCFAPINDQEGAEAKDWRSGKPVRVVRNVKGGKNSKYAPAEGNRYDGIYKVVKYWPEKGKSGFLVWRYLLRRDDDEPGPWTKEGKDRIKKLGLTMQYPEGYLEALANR
measure: pIC50
pIC50 is defined as minus the log10 of a concentration measured in mol/L.

Prompt: Would you mind telling me what pIC50 value was observed for COC(=O)c1ccc(O)c2nc3c(C=O)c(O)cc(O)c3nc12 [compound 3] ?
Response: 6.31
